# studySystem: human SGLT2 (Homo sapiens)
# Sequence (P31639 whole entry): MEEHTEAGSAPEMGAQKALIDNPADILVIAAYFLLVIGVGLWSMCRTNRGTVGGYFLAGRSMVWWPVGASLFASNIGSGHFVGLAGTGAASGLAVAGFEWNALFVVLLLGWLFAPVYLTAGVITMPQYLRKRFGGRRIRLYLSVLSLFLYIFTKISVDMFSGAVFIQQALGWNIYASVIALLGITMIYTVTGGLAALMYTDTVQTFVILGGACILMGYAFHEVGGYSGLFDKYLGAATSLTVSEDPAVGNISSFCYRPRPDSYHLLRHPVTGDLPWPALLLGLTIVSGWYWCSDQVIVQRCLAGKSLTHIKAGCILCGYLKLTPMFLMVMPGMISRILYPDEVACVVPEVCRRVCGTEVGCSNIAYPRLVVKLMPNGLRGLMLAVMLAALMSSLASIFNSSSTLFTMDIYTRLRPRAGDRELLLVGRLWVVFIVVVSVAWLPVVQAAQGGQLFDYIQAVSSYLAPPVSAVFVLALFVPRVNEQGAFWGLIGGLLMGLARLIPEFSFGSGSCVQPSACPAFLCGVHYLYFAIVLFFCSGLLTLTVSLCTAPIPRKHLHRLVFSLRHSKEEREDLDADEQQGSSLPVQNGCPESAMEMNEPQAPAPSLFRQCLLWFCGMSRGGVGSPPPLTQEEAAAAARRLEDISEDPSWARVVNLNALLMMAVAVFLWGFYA
# protocol: Methyl-α-D-glucopyranoside intake inhibition activity in human SGLT2 stable expression CHO cells
# conditionSet: methyl-α-D-(U-14C)glucopyranoside intake, 37° C., 45 minutes
experimentalEndpoint: IC50 (nM)
Note: unit nM is implicit; provide only the numeric part.

compound | experimentalEndpoint | unitOfMeasure | experimentalResult
COc1ccc(Cc2c(F)cccc2O[C@@H]2C[C@H](CO)[C@@H](O)[C@H](O)[C@H]2O)cc1 | IC50 | nM | 18
CCc1ccc(Cc2cc([C@]3(O)C[C@H](CO)[C@@H](O)[C@H](O)[C@H]3O)c(OC)cc2OC)cc1 | IC50 | nM | 5.1

Could you now consider this next compound?
Data request, read-out IC50, for `CCc1ccc(Cc2ccc(OC)c([C@]3(O)C[C@H](CO)[C@@H](O)[C@H](O)[C@H]3O)c2)cc1`
11
